experiment: yeast display, Sf9 membrane polyspecificity reagent, FACS + sequencing; frameworks hold sequencing errors
measurementName: polyreactivity (PSR sort gate)

QVQLVESGGRLVQSGGSLRLSCAASGRTIVENAMGLYRQAPGKEREFVAAISYKGGSTYYADSVKGRFTISRDNAKNTVYFQMNSLNPEDTAVYYCAADPNYGYDYWGQGTQVTVST | low polyreactivity
QVQLVESGGGLVQAGGSLRLSCAASGRIFKGNAMGWYRQAPGKEREFVAAISQRGGSTYYADSVKGRFTISRDNAKNTVYLQMNSLKPEDTAVYFCAAAAQRPEGYYWGQGTQVTVSS | high polyreactivity
QVQLVESGGGLVQAGGSLRLSCAASGRTFRWYAMGWYRQAPGKERELVAAIRSGGRTYYADSVKGRFTISRDNAKNTVYLQMNSLKPEDTAVYYCAALAVTYRYDYWGQGTQVTVSS | high polyreactivity
QVQLVESGGGLVQAGGSLRLSCDASGLTFAYYAMGWYRQAPGKERELVAAISSSGGRTYYADSVKGRFTISRDNAKNTVYLQMNSLKPEDTAVYYCAKSRYSTQTDYNYWGQGTQVTVSS | high polyreactivity
QVQLVESGGGLVQAGGSLRLSCAASGSIFEFYAMGWYRQAPGKERELVAAITSDGGSTYYADSVKGRFTISRDNAKNTVYLQMNSLKPEDTAVYYCAKDPYALPAQINDYWGQGTQVTVSS | high polyreactivity
QVQLVESGGGLVQAGGSLRLTCAASGSIFLYYAMGWYRQAPGKERELVAGINRVGSTNYADSVKGRFTISRDNAKNTVNLQMNSLKPEDTAVYYCNKRATRSRRRGYWGQGTQVTVSS | low polyreactivity
QVQLVESGGGLVQAGGSLRLSCAASGRTFGQNTMGWYRQAPGKERELVAAIRNRGGSTYYADSVKGRFTISRDNAKKTGYVQMNSLKPEDTAVYYCAAYPYWKGDYWGQGTQVTVSS | high polyreactivity
QVQLVESGGGLVQAGGSLRLSCAASGRIPVNAMGWYRQAPVKERELVAAISVSGGSTNYADSVKGRFTISRDNAKNTVYLQMNSLKPEDTAVYYCNADPDWWYPYNYWGQGTQVTLSS | low polyreactivity
QVQLVESGGGLVQAGGSLRLSCAASGSIFTINAMGWYRQAPGKERELVAAISFSGGRTYYADSVKGRFTISRDNAKNTVYLQMNSLKPEDTAVYYCAAPFYYYGVRFDYWGQGTQVTVSS | high polyreactivity
QVQLVESGVGLVQAGGSHRFICAASGIIFYSYAMGWYRQAPGKEREFVAAITNSDGSTYYADTVKRRFTISRDNAKNTVYLQMNSLKPVDTAVYMYYWGQGTQVTVSS | low polyreactivity
QVQLVDSGGGLVQAGGSLRLSCDASGSIFFWYTMGWYRQAPGKESELVATITGSGSSTTYADSVKGRFTISRDNAKNTVYLQMISLKPEDTAVYYCAAADIIDHSFPYDYWGLGTQVTVSS | low polyreactivity
